# TARGET SYSTEM: cAMP-dependent protein kinase catalytic subunit beta (Homo sapiens, UniProt P22694); note: in the data inactive means no Kd found up to 30 µM
Active and inactive are the calls of the source.
Outcomes: TRUE (active), FALSE (inactive)

COMPOUND: C#Cc1cccc(Nc2ncnc3cc4c(cc23)OCCOCCOCCO4)c1
CLASS LABEL: FALSE
//
COMPOUND: Cc1cc(-c2cc(OC(=O)c3ccccc3)ccc2Cl)cc2nnc(Nc3ccc(OCCN4CCCC4)cc3)nc12
CLASS LABEL: FALSE
//
COMPOUND: COc1cc2ncnc(Nc3ccc(O)cc3)c2cc1OC
CLASS LABEL: FALSE
//
COMPOUND: COc1cc(F)c(F)c(Nc2ccc(I)cc2F)c1NS(=O)(=O)C1(C[C@H](O)CO)CC1
CLASS LABEL: FALSE
//
COMPOUND: CCc1nc(C(N)=O)c(Nc2ccc(N3CCC(N4CCN(C)CC4)CC3)c(OC)c2)nc1NC1CCOCC1
CLASS LABEL: FALSE
//
COMPOUND: CN(c1ncccc1CNc1nc(Nc2ccc3c(c2)CC(=O)N3)ncc1C(F)(F)F)S(C)(=O)=O
CLASS LABEL: FALSE
//
COMPOUND: CC1(COc2ccc3c(c2)ncn3-c2ccc3cccc(N4CCC(N)CC4)c3n2)COC1
CLASS LABEL: FALSE
//
COMPOUND: Cn1c(=O)c(F)c(Nc2ccc(I)cc2F)c2c(=O)n(C[C@@H](O)CO)cnc21
CLASS LABEL: FALSE
//
COMPOUND: Cc1c(Cn2c(C)nc3c(C(=O)O)cc(N4CCOCC4)cc32)cccc1C(F)(F)F
CLASS LABEL: FALSE
//
COMPOUND: CCN(CCCOc1ccc2c(Nc3cc(CC(=O)Nc4cccc(F)c4)n[nH]3)ncnc2c1)CCOP(=O)(O)O
CLASS LABEL: FALSE
//
COMPOUND: C=CC(=O)Nc1cc(Nc2nccc(-c3cn(C)c4ccccc34)n2)c(OC)cc1N(C)CCN(C)C
CLASS LABEL: FALSE
//
COMPOUND: CN1CCN(c2nc(C3=C(c4c[nH]c5ccccc45)C(=O)NC3=O)c3ccccc3n2)CC1
CLASS LABEL: FALSE
//
COMPOUND: COc1ccc2c(OCc3nnc4ccc(-c5ccccc5)nn34)ccnc2c1
CLASS LABEL: FALSE
//
COMPOUND: C[C@@H]1COC(Nc2ccc3ncnc(Nc4ccc(OCc5nccs5)c(Cl)c4)c3c2)=N1
CLASS LABEL: FALSE
//
COMPOUND: CC(C)(O)CC(=O)NCCn1ccc2ncnc(Nc3ccc(Oc4cccc(C(F)(F)F)c4)c(Cl)c3)c21
CLASS LABEL: FALSE
//
COMPOUND: C=CCN(/C=C1/C(=O)O[C@H](COC)[C@@]2(C)C1=C(O)C(=O)C1=C2[C@H](OC(C)=O)C[C@]2(C)C(=O)CC[C@@H]12)CC=C
CLASS LABEL: FALSE
//
COMPOUND: C=CCn1c(=O)c2cnc(Nc3ccc(N4CCN(C)CC4)cc3)nc2n1-c1cccc(C(C)(C)O)n1
CLASS LABEL: FALSE
//
COMPOUND: CCc1cc2c(cc1N1CCC(N3CCOCC3)CC1)C(C)(C)c1[nH]c3cc(C#N)ccc3c1C2=O
CLASS LABEL: FALSE
//
COMPOUND: S=C(NCc1ccc2c(c1)OCO2)N1CCN(c2ncnc3c2oc2ccccc23)CC1
CLASS LABEL: FALSE
//
COMPOUND: CNC(=O)c1cc(COc2nnc(Nc3ccc(Cl)cc3)c3ccoc23)ccn1
CLASS LABEL: FALSE
//
COMPOUND: O=S(=O)(c1cccc2c(O)nccc12)N1CCCNCC1 [HYDROXYFASUDIL]
CLASS LABEL: FALSE
//
COMPOUND: COc1cc2ncnc3c2cc1OCCCCCN(C)Cc1ccc(Br)cc1N3
CLASS LABEL: FALSE
//
COMPOUND: COc1cc2nccc(Oc3ccc(NC(=O)C4(C(=O)Nc5ccc(F)cc5)CC4)cc3)c2cc1OC [CABOZANTINIB]
CLASS LABEL: FALSE
//
COMPOUND: NC(=O)c1ccc(N(C(N)=O)c2c(F)cccc2F)nc1-c1ccc(F)cc1F
CLASS LABEL: FALSE
//
COMPOUND: Cc1c(NC(=O)OC[C@@H]2COCCN2)cn2ncnc(Nc3ccc4c(cnn4Cc4cccc(F)c4)c3)c12
CLASS LABEL: FALSE
//
COMPOUND: COc1cccc(Nc2ncnn3ccc(CN4CC[C@@H](N)[C@H](O)C4)c23)c1
CLASS LABEL: TRUE
//
COMPOUND: CCOc1ccn(-c2ccc(F)cc2)c(=O)c1C(=O)Nc1ccc(Oc2ccnc(N)c2Cl)c(F)c1
CLASS LABEL: FALSE
//
COMPOUND: Cc1ccc(C(=O)Nc2ccc(Oc3cc4cnn(C)c4cc3-c3cn[nH]c3)c(F)c2)c(=O)n1-c1ccc(F)cc1
CLASS LABEL: FALSE
//
COMPOUND: c1cc(OCCN2CCCCC2)cc(-c2n[nH]c3ccc(-c4nc[nH]n4)cc23)c1
CLASS LABEL: FALSE
//
COMPOUND: COc1cc2ncnc(Nc3ccc(F)c(Cl)c3)c2cc1NC(=O)/C=C/CN1CCCCC1 [DACOMITINIB ANHYDROUS]
CLASS LABEL: FALSE
//
COMPOUND: Cn1c(=O)n(-c2ccc(C(C)(C)C#N)cc2)c2c3cc(-c4cnc5ccccc5c4)ccc3ncc21
CLASS LABEL: FALSE
//
COMPOUND: O=C(Nc1ccc(OC(F)(F)F)cc1)c1sccc1NCc1ccnc2ccccc12
CLASS LABEL: FALSE
